- test: Volume of distribution at steady state in cynomolgus monkey at 0.5 mg/kg, iv by LC-MS/MS analysis
- Type: ADME, organism-based, Macaca fascicularis
- appliedConditions: in vivo, read-out: Vdss
reportedEndpoint: Vd (L/kg)
Reply with just the number (in L/kg).

Inquiry: Reported Vd, molecule COc1ccc(C[C@@H]2NC(=O)[C@H]([C@@H](C)O)NC(=O)[C@@H]3CCCN3C(=O)[C@@H]3Cc4cn(c5ccc(F)cc45)Cc4cn(nn4)-c4cc(cc(c4)CSCCC(=O)N[C@@H](C)C(=O)N[C@H](C)C(=O)N[C@@H](Cc4c[nH]c5ccc(F)cc45)C(=O)N3)CSCCNC(=O)[C@]3(C)CCCN3C2=O)cc1 : ____
Reply text: 1.06

###

- systemUnderTest: PCSK9/LDLR (Homo sapiens)
- Sequence (Q8NBP7 31-152 limits assumed): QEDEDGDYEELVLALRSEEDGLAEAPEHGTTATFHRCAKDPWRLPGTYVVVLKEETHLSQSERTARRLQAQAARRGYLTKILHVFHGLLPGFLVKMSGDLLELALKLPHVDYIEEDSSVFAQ
- Sequence (Q8NBP7 153-692 limits assumed): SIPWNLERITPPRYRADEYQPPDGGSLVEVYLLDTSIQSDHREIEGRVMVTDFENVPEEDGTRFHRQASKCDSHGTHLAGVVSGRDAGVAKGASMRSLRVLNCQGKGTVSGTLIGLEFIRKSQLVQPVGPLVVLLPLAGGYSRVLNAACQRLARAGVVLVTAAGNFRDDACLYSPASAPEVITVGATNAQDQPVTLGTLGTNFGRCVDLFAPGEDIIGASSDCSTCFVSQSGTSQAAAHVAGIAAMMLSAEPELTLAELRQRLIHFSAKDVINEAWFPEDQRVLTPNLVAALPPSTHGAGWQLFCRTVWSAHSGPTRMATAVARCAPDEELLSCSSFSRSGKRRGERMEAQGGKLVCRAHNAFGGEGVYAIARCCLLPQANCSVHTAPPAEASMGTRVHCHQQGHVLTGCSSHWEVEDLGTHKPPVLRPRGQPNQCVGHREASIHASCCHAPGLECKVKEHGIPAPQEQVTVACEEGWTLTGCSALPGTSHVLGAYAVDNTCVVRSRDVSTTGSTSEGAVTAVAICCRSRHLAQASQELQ
- Sequence (P01130 22-860 partner limits assumed): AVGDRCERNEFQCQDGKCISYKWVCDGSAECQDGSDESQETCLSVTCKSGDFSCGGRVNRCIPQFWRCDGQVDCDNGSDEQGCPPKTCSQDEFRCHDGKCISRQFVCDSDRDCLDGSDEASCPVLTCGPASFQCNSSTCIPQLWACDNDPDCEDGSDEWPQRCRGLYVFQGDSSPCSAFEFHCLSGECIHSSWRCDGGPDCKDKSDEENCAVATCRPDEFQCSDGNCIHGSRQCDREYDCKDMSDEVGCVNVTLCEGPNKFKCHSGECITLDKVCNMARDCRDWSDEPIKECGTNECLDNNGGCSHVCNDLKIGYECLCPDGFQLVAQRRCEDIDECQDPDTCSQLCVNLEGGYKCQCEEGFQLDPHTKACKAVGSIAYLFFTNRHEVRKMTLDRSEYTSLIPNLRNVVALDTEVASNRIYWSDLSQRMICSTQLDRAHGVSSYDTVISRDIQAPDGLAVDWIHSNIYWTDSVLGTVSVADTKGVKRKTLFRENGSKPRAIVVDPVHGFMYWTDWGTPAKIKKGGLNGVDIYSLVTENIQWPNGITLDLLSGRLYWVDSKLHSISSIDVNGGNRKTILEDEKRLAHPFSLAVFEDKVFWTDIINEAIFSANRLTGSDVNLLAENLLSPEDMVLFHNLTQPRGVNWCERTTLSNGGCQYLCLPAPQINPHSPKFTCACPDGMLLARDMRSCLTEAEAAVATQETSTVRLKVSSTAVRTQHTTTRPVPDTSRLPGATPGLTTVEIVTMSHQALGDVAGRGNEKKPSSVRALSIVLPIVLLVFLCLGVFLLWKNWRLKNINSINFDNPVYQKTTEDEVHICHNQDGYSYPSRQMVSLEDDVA
- test: Inhibition of avi-tagged-biotinylated human PCSK9 interaction with His-tagged human LDLR EGFa domain by LANCE Ulight Streptavidin based TR-FRET assay
Numbered stars: 1 amine (or outer) side, 2 acyl side, 3 side chain; on linkers, the order of the positions; unused ones are H or OH. Bridge positions count the residues as written; N and C are the ends. Square brackets hold non-standard residues; d marks the D form. Peptide text beside a SMILES is read from it. Trp(5-F) = N[C@@H](Cc1c[nH]c2ccc(F)cc12)C(=O)O; mXylylene = c1cc(C[*:1])cc(C[*:2])c1; αMeP = C[C@@]1(C(=O)O)CCCN1; NMeC = CN[C@@H](CS)C(=O)O; Mpa = O=C(O)CCS
reportedEndpoint: Ki

Past entries and their recorded results:
C[C@@H](O)[C@@H]1NC(=O)[C@@H]2CCCN2C(=O)[C@H](Cc2c[nH]c3ccc(F)cc23)NC(=O)[C@H](Cc2c[nH]c3ccc(F)cc23)NC(=O)CNC(=O)[C@H](CCCCN)NC(=O)CCSCc2cccc(c2)CSC[C@@H](C(N)=O)NC(=O)[C@]2(C)CCCN2C(=O)[C@H](Cc2ccc(O)cc2)NC1=O ([Mpa]KG[Trp(5-F)][Trp(5-F)]PTY[αMeP]C-NH2; linker 1-10 via mXylylene): 0.0239 µM
CN1C(=O)[C@@H]2CCCN2C(=O)[C@H](Cc2ccc(O)cc2)NC(=O)[C@H](Cc2cnc[nH]2)NC(=O)[C@H](CC(=O)O)NC(=O)[C@H](Cc2c[nH]c3ccc(F)cc23)NC(=O)[C@H](Cc2c[nH]c3ccc(F)cc23)NC(=O)CNC(=O)[C@H](CCCCN)NC(=O)CCSCc2cccc(c2)CSC[C@H]1C(N)=O ([Mpa]KG[Trp(5-F)][Trp(5-F)]DHYP[NMeC]-NH2; linker 1-10 via mXylylene): > 48 µM

Inquiry: Fill in the recorded Ki for this compound, with PCSK9/LDLR (Homo sapiens) as test system: NCCCC[C@@H]1NC(=O)CCSCc2cccc(c2)CSC[C@@H](C(N)=O)NC(=O)[C@@H]2CCCN2C(=O)[C@H](Cc2ccc(O)cc2)NC(=O)[C@H](Cc2cnc[nH]2)NC(=O)[C@H](CC(=O)O)NC(=O)[C@H](Cc2c[nH]c3ccc(F)cc23)NC(=O)[C@@H](Cc2c[nH]c3ccccc23)NC(=O)CNC1=O
Reply text: > 48 µM

###

Reported pKi for target or system Proprotein convertase subtilisin/kexin type 9 (Homo sapiens, UniProt Q8NBP7), by entry.
Numbered stars: 1 amine (or outer) side, 2 acyl side, 3 side chain; on linkers, the order of the positions; unused ones are H or OH. Bridge positions count the residues as written; N and C are the ends. Square brackets hold non-standard residues; d marks the D form. Peptide text beside a SMILES is read from it. Trp(5-F) = N[C@@H](Cc1c[nH]c2ccc(F)cc12)C(=O)O; X3 = O=C(CCSCc1cc(F)cc(CSCCN[*:1])c1)[*:2]; Nle(6-COOH) = N[C@@H](CCCCC(=O)O)C(=O)O; X1 = O=C(CCSCc1cccc(CSCCN[*:1])c1)[*:2]; mXylylene = c1cc(C[*:1])cc(C[*:2])c1; PEG4 = NCCOCCOCCOCCOCCC(=O)O; αMeP = C[C@@]1(C(=O)O)CCCN1; Mpa = O=C(O)CCS
Note: pKi values are expressed as the negative base-10 logarithm of concentration in M.

These solved cases illustrate the format of a correct answer.
C[C@@]12CCCN1C(=O)[C@H](Cc1ccc(O)cc1)NC(=O)[C@H](Cc1cnc[nH]1)NC(=O)[C@H](CC(=O)O)NC(=O)[C@H](Cc1c[nH]c3ccc(F)cc13)NC(=O)[C@H](Cc1c[nH]c3ccc(F)cc13)NC(=O)CNC(=O)[C@H](CCCCNC(=O)CCOCCOCCOCCOCCN)NC(=O)CCSCc1cccc(c1)CSC[C@@H](C(N)=O)NC2=O ([Mpa]K(PEG4)G[Trp(5-F)][Trp(5-F)]DHY[αMeP]C-NH2; linker 1-10 via mXylylene): 7.97
C[C@H]1NC(=O)[C@H](CCCCN)NC(=O)CCSCc2cc(F)cc(c2)CSCCNC(=O)[C@]2(C)CCCN2C(=O)[C@H](Cc2ccc(O)cc2)NC(=O)[C@H](Cc2cnc[nH]2)NC(=O)[C@H](CC(=O)O)NC(=O)[C@H](Cc2c[nH]c3ccc(F)cc23)NC(=O)[C@H](Cc2c[nH]c3ccc(F)cc23)NC1=O (cyclo(DHY[αMeP][X3]K[dA][Trp(5-F)][Trp(5-F)])): 8.82
COc1ccc(C[C@@H]2NC(=O)[C@H](Cc3cnc[nH]3)NC(=O)[C@H](CC(=O)O)NC(=O)[C@H](Cc3c[nH]c4ccc(F)cc34)NC(=O)[C@H](Cc3c[nH]c4ccc(F)cc34)NC(=O)[C@@H](C)NC(=O)[C@H](CCCCN(C)C)NC(=O)CCSCc3cccc(c3)CSCCNC(=O)[C@]3(C)CCCN3C2=O)cc1: 8.38
C[C@@]12CCCN1C(=O)[C@H](Cc1ccc(O)cc1)NC(=O)[C@H](Cc1cnc[nH]1)NC(=O)[C@H](CC(=O)O)NC(=O)[C@H](Cc1c[nH]c3ccc(F)cc13)NC(=O)[C@H](Cc1c[nH]c3ccc(F)cc13)NC(=O)CNC(=O)[C@H](CCCCN)NC(=O)CCSCc1cccc(c1)CSCCNC2=O (cyclo(DHY[αMeP][X1]KG[Trp(5-F)][Trp(5-F)])): 8.37

Inquiry: Under Proprotein convertase subtilisin/kexin type 9 (Homo sapiens, UniProt Q8NBP7): pKi value of COc1ccc(C[C@@H]2NC(=O)[C@H]([C@@H](C)O)NC(=O)[C@@H]3CCCC(=O)NCc4cccc(c4)C[C@H](NC(=O)[C@@H](C)NC(=O)[C@H](C)NC(=O)CCSCc4cccc(c4)CSCCNC(=O)[C@]4(C)CCCN4C2=O)C(=O)N[C@@H](Cc2c[nH]c4ccc(F)cc24)C(=O)N3)cc1 ?
Reply text: 7.35

Inquiry: Recall the recorded pKi for COc1ccc(C[C@@H]2NC(=O)[C@H](Cc3cnc[nH]3)NC(=O)[C@H](CC(=O)O)NC(=O)[C@H](Cc3c[nH]c4ccc(F)cc34)NC(=O)[C@H](Cc3c[nH]c4ccc(F)cc34)NC(=O)[C@@H](C)NC(=O)[C@H](CCCCC(=O)O)NC(=O)CCSCc3cccc(c3)CSCCNC(=O)[C@]3(C)CCCN3C2=O)cc1 (cyclo(DHY(Me)[αMeP][X1][Nle(6-COOH)][dA][Trp(5-F)][Trp(5-F)])) with Proprotein convertase subtilisin/kexin type 9 (Homo sapiens, UniProt Q8NBP7) and state it.
Reply text: 7.07
